Source listed as PubChem BioAssay (NCI).

System: SW-620 colon
measurement.protocol: NCI tumour cell line growth inhibition, 48 h
Where a SMILES comes first, the peptide text is derived from it. [ ]: non-standard residue; d: D form. The star is where a group is joined. Phe(2-OMe) = COc1ccccc1C[CH](N)C(=O)O; Cbz = O=C(OCc1ccccc1)*; OBn = c1ccc(CO*)cc1

molecule	TGI
CCc1cccc(C)c1NC(=O)CCc1nnc(SC)o1	> 100 µM
COC(=O)C(Cc1ccccc1OC)NC(=O)C(CC(=O)OCc1ccccc1)NC(=O)OCc1ccccc1 (stereo not given) (Cbz-Asp(OBn)-[Phe(2-OMe)]-OMe; configuration not given here)	> 100 µM
C/C(=N\NC(=S)N1CCN(c2ccccn2)CC1)c1cccc(C)n1	14.2 µM
CCC1(CN(C)C)CC/C(=C\c2ccc(OC)cc2)C1=O (stereo not given)	> 100 µM
CCN(CC)c1c(C)c(C(=O)OC)nn1-c1ccccc1	> 100 µM

###

Test system: EKVX NSCLC
measurement.protocol: NCI tumour cell line growth inhibition, 48 h
Entries annotated with measured log10 TGI
measurement.label: log10 TGI (log10 of the value in µM)

> print(dat)
                                   molecule  experimental.system  value.reported
1  CC/C=C/c1cc2c(c3[nH]ccc13)[C@@H](C)CC2C (some centres not stated) (tested in a mixture with another compound)           EKVX NSCLC            1.56
2  COc1cc(/C=C\c2cc(/C=C\c3ccc(O)c(OC)c3)n(C(=O)COc3ccccc3)n2)ccc1O           EKVX NSCLC            1.01
3  CCOC(=O)C#Cc1c(C(=O)OCC)nnn1Cc1ccc(C(F)(F)F)cc1           EKVX NSCLC            1.49
4  Cc1c2cccc(Sc3ccccc3)c2c2c3c(cccc13)[S+](c1ccccc1)C2 (configuration not stated)           EKVX NSCLC            1.29
5  Cc1ccc(-c2cc(-c3cc(-c4ccc(C)cc4C)n[nH]3)[nH]n2)c(C)c1           EKVX NSCLC            1.66
6  COc1cccc(C=O)c1[O-].COc1cccc(C=O)c1[O-].[Cu+2]           EKVX NSCLC            1.89
7      Cc1ccc2cc3cccc(C(=O)NCCN(C)C)c3nc2c1           EKVX NSCLC            0.54
8  O=[N+]([O-])c1ccc2c3c1[C@H]1O[C@H]1c1cccc(c1-3)[C@@H]1O[C@H]21           EKVX NSCLC            0.61

###

Tested on: IGROV1 ovarian
measurement.protocol: NCI tumour cell line growth inhibition, 48 h
Entries annotated with measured TGI
measurement.label: TGI (µM)

compound	censoring.operator	value.reported
CN1CCN(Cc2ccc(NC(=O)c3cncc(C#Cc4cnc5ccc(Cl)nn45)c3)cc2C(F)(F)F)CC1	=	3.54
O=C1C(=C2SC(c3ccccc3)(c3ccccc3)c3ccccc32)C(=O)c2ccccc21	>	100
CCCCCCCCCCCCCCCCCCNc1nc(=O)n(C2CC(O)C(COP(=O)(O)OCC(COP(=O)(O)OC3C(CO)OC(n4ccc(N)nc4=O)C3O)OCCCCCCCCCCCCCCCCCC)O2)cc1F (stereo unspecified)	>	100
CC(=O)O[C@H](C[C@@H](C)[C@H]1C(=O)[C@H](O)[C@@]2(C)C3CC[C@H]4C(C)(C)[C@@H](OC5OCC(O)C(O)C5O)CC[C@@]45C[C@@]35CC[C@]12C)[C@@H]1OC1(C)C (stereo partly specified)	=	29.7
N=C(N)c1ccc(-c2ccc(-c3ccc(F)cc3)s2)nc1	=	3.61
C/C=C/C[C@@H](C)C(=O)C1C(=O)N[C@@H](C(C)C)C(=O)N(C)CC(=O)N(C)[C@@H](CC(C)C)C(=O)N[C@@H](C(C)C)C(=O)N(C)[C@@H](CC(C)C)C(=O)N[C@@H](C)C(=O)N[C@@H](C)C(=O)N(C)[C@@H](CC(C)C)C(=O)N(C)[C@@H](CC(C)C)C(=O)N(C)[C@@H](C(C)C)C(=O)N1C (stereo partly specified)	=	65.6
